details: in n-butyl acetate, 303.2 K
endpoint_label: solubility (mole fraction)
Answers are plain numbers.

// returns reported solubility (mole fraction) for input CC1(C)O[C@H]2CC(=O)OC[C@]23[C@H]2CC[C@@]4(C)[C@H](c5ccoc5)OC(=O)[C@H]5O[C@]54[C@]2(C)C(=O)C[C@@H]13 0.000484

###

conditions: in isopropanol, 323.2 K
endpoint_label: solubility (mole fraction)
One number for each entry.

Look up solubility (mole fraction) for this compound: CC1(C)O[C@H]2CC(=O)OC[C@]23[C@H]2CC[C@@]4(C)[C@H](c5ccoc5)OC(=O)[C@H]5O[C@]54[C@]2(C)C(=O)C[C@@H]13 4.52e-05

###

conditions: in ethyl acetate, 298.2 K
endpoint_label: solubility (mole fraction)
Numbers only.

What does the data say about its solubility (mole fraction)? Entry: CC1(C)O[C@H]2CC(=O)OC[C@]23[C@H]2CC[C@@]4(C)[C@H](c5ccoc5)OC(=O)[C@H]5O[C@]54[C@]2(C)C(=O)C[C@@H]13 0.00085

###

conditions: in ethanol, 283.2 K
endpoint_label: solubility (mole fraction)
Numbers only.

Fill blank: measured solubility (mole fraction) of the compound CC1(C)O[C@H]2CC(=O)OC[C@]23[C@H]2CC[C@@]4(C)[C@H](c5ccoc5)OC(=O)[C@H]5O[C@]54[C@]2(C)C(=O)C[C@@H]13 is ____. 2.65e-05

###

settings: in THF, 303.2 K
endpoint_label: solubility (mole fraction)
Answers are plain numbers.

I have this compound here, CC1(C)O[C@H]2CC(=O)OC[C@]23[C@H]2CC[C@@]4(C)[C@H](c5ccoc5)OC(=O)[C@H]5O[C@]54[C@]2(C)C(=O)C[C@@H]13 , and I need its recorded solubility (mole fraction). 0.00327

###

conditions: in chloroform, 293.2 K
endpoint_label: solubility (mole fraction)
Answers are plain numbers.

Which value of solubility (mole fraction) has been reported for CC1(C)O[C@H]2CC(=O)OC[C@]23[C@H]2CC[C@@]4(C)[C@H](c5ccoc5)OC(=O)[C@H]5O[C@]54[C@]2(C)C(=O)C[C@@H]13 in the records? 0.00447

###

details: in ethanol, 318.2 K
endpoint_label: solubility (mole fraction)
Answers are plain numbers.

Give its solubility (mole fraction) value. Item: CC1(C)O[C@H]2CC(=O)OC[C@]23[C@H]2CC[C@@]4(C)[C@H](c5ccoc5)OC(=O)[C@H]5O[C@]54[C@]2(C)C(=O)C[C@@H]13 8.49e-05

###

settings: in n-butanol, 283.2 K
endpoint_label: solubility (mole fraction)
Numbers only.

Look up solubility (mole fraction): CC1(C)O[C@H]2CC(=O)OC[C@]23[C@H]2CC[C@@]4(C)[C@H](c5ccoc5)OC(=O)[C@H]5O[C@]54[C@]2(C)C(=O)C[C@@H]13 1.53e-05

###

conditions: in isopropanol, 298.2 K
endpoint_label: solubility (mole fraction)
One number for each entry.

Could you tell me which solubility (mole fraction) is on file for CC1(C)O[C@H]2CC(=O)OC[C@]23[C@H]2CC[C@@]4(C)[C@H](c5ccoc5)OC(=O)[C@H]5O[C@]54[C@]2(C)C(=O)C[C@@H]13 ? 1.79e-05

###

settings: in ethyl acetate, 303.2 K
endpoint_label: solubility (mole fraction)
One number for each entry.

Look at this molecule and give its reported solubility (mole fraction). CC1(C)O[C@H]2CC(=O)OC[C@]23[C@H]2CC[C@@]4(C)[C@H](c5ccoc5)OC(=O)[C@H]5O[C@]54[C@]2(C)C(=O)C[C@@H]13 0.00094

###

conditions: in ethyl acetate, 283.2 K
endpoint_label: solubility (mole fraction)
One number for each entry.

Need solubility (mole fraction) of CC1(C)O[C@H]2CC(=O)OC[C@]23[C@H]2CC[C@@]4(C)[C@H](c5ccoc5)OC(=O)[C@H]5O[C@]54[C@]2(C)C(=O)C[C@@H]13 , thanks. 0.000746

###

settings: in ethanol, 288.2 K
endpoint_label: solubility (mole fraction)
Answers are plain numbers.

Dear colleague, I am looking for the recorded solubility (mole fraction) of the following compound: CC1(C)O[C@H]2CC(=O)OC[C@]23[C@H]2CC[C@@]4(C)[C@H](c5ccoc5)OC(=O)[C@H]5O[C@]54[C@]2(C)C(=O)C[C@@H]13 2.93e-05

###

conditions: in acetonitrile, 308.2 K
endpoint_label: solubility (mole fraction)
Give bare numbers.

I have this compound here, CC1(C)O[C@H]2CC(=O)OC[C@]23[C@H]2CC[C@@]4(C)[C@H](c5ccoc5)OC(=O)[C@H]5O[C@]54[C@]2(C)C(=O)C[C@@H]13 , and I need its recorded solubility (mole fraction). 0.00523

###

details: in ethanol, 323.2 K
endpoint_label: solubility (mole fraction)
Answers are plain numbers.

Using the record for CC1(C)O[C@H]2CC(=O)OC[C@]23[C@H]2CC[C@@]4(C)[C@H](c5ccoc5)OC(=O)[C@H]5O[C@]54[C@]2(C)C(=O)C[C@@H]13 , report its solubility (mole fraction). 0.000101

###

conditions: in n-butanol, 323.2 K
endpoint_label: solubility (mole fraction)
One number for each entry.

solubility (mole fraction) lookup needed for CC1(C)O[C@H]2CC(=O)OC[C@]23[C@H]2CC[C@@]4(C)[C@H](c5ccoc5)OC(=O)[C@H]5O[C@]54[C@]2(C)C(=O)C[C@@H]13 , thanks. 7.25e-05

###

settings: in ethyl acetate, 308.2 K
endpoint_label: solubility (mole fraction)
Give bare numbers.

Reported solubility (mole fraction) for CC1(C)O[C@H]2CC(=O)OC[C@]23[C@H]2CC[C@@]4(C)[C@H](c5ccoc5)OC(=O)[C@H]5O[C@]54[C@]2(C)C(=O)C[C@@H]13 : what is it? 0.000979

###

conditions: in n-butanol, 293.2 K
endpoint_label: solubility (mole fraction)
One number for each entry.

I would be grateful if you could share the reported solubility (mole fraction) for CC1(C)O[C@H]2CC(=O)OC[C@]23[C@H]2CC[C@@]4(C)[C@H](c5ccoc5)OC(=O)[C@H]5O[C@]54[C@]2(C)C(=O)C[C@@H]13 . 2.01e-05

###

details: in n-butanol, 303.2 K
endpoint_label: solubility (mole fraction)
Numbers only.

May I ask what solubility (mole fraction) has been recorded for CC1(C)O[C@H]2CC(=O)OC[C@]23[C@H]2CC[C@@]4(C)[C@H](c5ccoc5)OC(=O)[C@H]5O[C@]54[C@]2(C)C(=O)C[C@@H]13 ? 2.91e-05

###

conditions: in acetonitrile, 313.2 K
endpoint_label: solubility (mole fraction)
One number for each entry.

Need solubility (mole fraction) of CC1(C)O[C@H]2CC(=O)OC[C@]23[C@H]2CC[C@@]4(C)[C@H](c5ccoc5)OC(=O)[C@H]5O[C@]54[C@]2(C)C(=O)C[C@@H]13 , thanks. 0.00628

###

settings: in chloroform, 313.2 K
endpoint_label: solubility (mole fraction)
Numbers only.

# get_value(readout='solubility (mole fraction)', item= CC1(C)O[C@H]2CC(=O)OC[C@]23[C@H]2CC[C@@]4(C)[C@H](c5ccoc5)OC(=O)[C@H]5O[C@]54[C@]2(C)C(=O)C[C@@H]13 ) 0.00531

###

conditions: in acetonitrile, 283.2 K
endpoint_label: solubility (mole fraction)

Reported solubility (mole fraction) for CC1(C)O[C@H]2CC(=O)OC[C@]23[C@H]2CC[C@@]4(C)[C@H](c5ccoc5)OC(=O)[C@H]5O[C@]54[C@]2(C)C(=O)C[C@@H]13 : what is it? 0.00272

###

settings: in ethyl acetate, 293.2 K
endpoint_label: solubility (mole fraction)
Answers are plain numbers.

Which solubility (mole fraction) value is on record for CC1(C)O[C@H]2CC(=O)OC[C@]23[C@H]2CC[C@@]4(C)[C@H](c5ccoc5)OC(=O)[C@H]5O[C@]54[C@]2(C)C(=O)C[C@@H]13 ? 0.000801

###

conditions: in chloroform, 308.2 K
endpoint_label: solubility (mole fraction)
Answers are plain numbers.

So what's the measured solubility (mole fraction) for this one? CC1(C)O[C@H]2CC(=O)OC[C@]23[C@H]2CC[C@@]4(C)[C@H](c5ccoc5)OC(=O)[C@H]5O[C@]54[C@]2(C)C(=O)C[C@@H]13 0.00512

###

conditions: in isopropanol, 318.2 K
endpoint_label: solubility (mole fraction)
Numbers only.

Which solubility (mole fraction) reading was recorded for the compound CC1(C)O[C@H]2CC(=O)OC[C@]23[C@H]2CC[C@@]4(C)[C@H](c5ccoc5)OC(=O)[C@H]5O[C@]54[C@]2(C)C(=O)C[C@@H]13 ? 3.47e-05

###

settings: in ethanol, 313.2 K
endpoint_label: solubility (mole fraction)
Numbers only.

Need solubility (mole fraction), item CC1(C)O[C@H]2CC(=O)OC[C@]23[C@H]2CC[C@@]4(C)[C@H](c5ccoc5)OC(=O)[C@H]5O[C@]54[C@]2(C)C(=O)C[C@@H]13 6.71e-05

###

conditions: in acetonitrile, 303.2 K
endpoint_label: solubility (mole fraction)

Would you mind telling me what solubility (mole fraction) value was observed for CC1(C)O[C@H]2CC(=O)OC[C@]23[C@H]2CC[C@@]4(C)[C@H](c5ccoc5)OC(=O)[C@H]5O[C@]54[C@]2(C)C(=O)C[C@@H]13 ? 0.00454
